These measurements were taken from PubChem BioAssay AID371.

# growth inhibition per entry
# test.name: A549 NSCLC cell proliferation inhibitors – ATP luminescence, human non-small cell lung line, primary screen (AID 371);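 also: compound exposure lasted 72 h before the ATP read; 0% = untreated cell signal and 100% = no luminescence left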
# run.conditions: at 10 µM, hits give high values
Screen size: about 3,300 compounds; about 280 (8.5%) were called active. This excerpt belongs to a sample that is enriched for actives.
reported.metric: growth inhibition (%)

[
  {
    "compound": "N#Cc1c(N)n(CCOC(=O)c2cccc(Br)c2)c2nc3ccccc3nc12",
    "reported.metric": "growth inhibition",
    "observed.measurement": 3.2
  },
  {
    "compound": "O=C(c1ccc(=O)oc1)N1CCN(C(c2ccccc2)c2ccccc2)CC1",
    "reported.metric": "growth inhibition",
    "observed.measurement": 41.2
  },
  {
    "compound": "CCCCc1nc(NCC2CCCO2)c(C#N)c2c1COC(C)(C)C2 (configuration not stated)",
    "reported.metric": "growth inhibition",
    "observed.measurement": 13.2
  },
  {
    "compound": "CCOC(=O)c1nc2nc(C)c(Cl)c(=O)n2[nH]1",
    "reported.metric": "growth inhibition",
    "observed.measurement": -2.82
  },
  {
    "compound": "CCCCc1[nH]c(=O)c(C#N)c2c1CSC(C)(C)C2",
    "reported.metric": "growth inhibition",
    "observed.measurement": 7.58
  },
  {
    "compound": "O=C(O)CCCCCN1C(=O)CCC1=O",
    "reported.metric": "growth inhibition",
    "observed.measurement": -0.47
  },
  {
    "compound": "COc1nnnc2c1sc1nc(N3CCOCC3)c3c(c12)CC(C)(C)OC3",
    "reported.metric": "growth inhibition",
    "observed.measurement": -0.53
  },
  {
    "compound": "CCOC(=O)CC1=C(C(=O)OCC)C(c2ccc(OC)c(OC)c2)C(C#N)=C(N)O1 (configuration not stated)",
    "reported.metric": "growth inhibition",
    "observed.measurement": -2.02
  },
  {
    "compound": "CC1(C)Cc2c(c(N3CCOCC3)nc3snc(Br)c23)CO1",
    "reported.metric": "growth inhibition",
    "observed.measurement": 16
  },
  {
    "compound": "CCc1nc(NC2CCCCC2)c(C#N)c2c1COC(C)(C)C2",
    "reported.metric": "growth inhibition",
    "observed.measurement": 46.1
  },
  {
    "compound": "CC1(C)Cc2c(c(N3CCOCC3)nc3snc(N)c23)CO1",
    "reported.metric": "growth inhibition",
    "observed.measurement": 91
  },
  {
    "compound": "CC(O)(C#CCN1CCOCC1)c1ccccc1 (configuration not stated)",
    "reported.metric": "growth inhibition",
    "observed.measurement": 2.79
  }
]

====

# test.name: A549 NSCLC cell proliferation inhibitors – ATP luminescence, human non-small cell lung line, primary screen (AID 371);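 also: compound exposure lasted 72 h before the ATP read; 0% = untreated cell signal and 100% = no luminescence left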
# run.conditions: at 10 µM, hits give high values
Hit rate of the full screen: of about 3,300 compounds, about 280 (8.5%) were called active. Only a selection was taken, and actives are over-represented in it overall.

[
  {
    "compound": "COc1ccc2c(c1OC)C(=O)N1c3ccccc3C(=O)N(c3ccccc3)C21 (configuration not stated)",
    "growth inhibition [%]": 36.5
  },
  {
    "compound": "CCCOc1cccc(C2C(C(=O)c3ccc(C)o3)=C(O)C(=O)N2CCCN(C)C)c1 (configuration not stated)",
    "growth inhibition [%]": 2.48
  },
  {
    "compound": "N#Cc1c(SCC(N)=O)nsc1SCc1ccc(Cl)cc1",
    "growth inhibition [%]": 23.5
  },
  {
    "compound": "CSc1ccc2c(c1)N(CCC1CCCCN1C)c1ccccc1S2 (configuration not stated)",
    "growth inhibition [%]": 93.4
  },
  {
    "compound": "CSc1nc2sc3c(c2c2nnnn12)CC(C)(C)OC3",
    "growth inhibition [%]": 9.43
  },
  {
    "compound": "CC1(C)Cc2c(sc3ncn4nnnc4c23)CO1",
    "growth inhibition [%]": 0.79
  },
  {
    "compound": "CC1(C)Cc2c(sc3c4nnnn4c4nnnn4c23)CO1",
    "growth inhibition [%]": 62.4
  },
  {
    "compound": "Cc1nnc(N2CCCCC2)c2ccccc12",
    "growth inhibition [%]": 8.14
  },
  {
    "compound": "N#CC1=C(N)NC(SCc2ccc(F)cc2)=C(C#N)C12CCCCC2",
    "growth inhibition [%]": 84.3
  },
  {
    "compound": "COc1ccc(Nc2nnc(C)c3ccccc23)cc1C(N)=O",
    "growth inhibition [%]": -0.95
  },
  {
    "compound": "Cc1nnc(NCc2n[nH]c(=O)c3ccccc23)c2ccccc12",
    "growth inhibition [%]": 69.7
  },
  {
    "compound": "CC(COc1ccccc1)NC(C)C(O)c1ccc(O)cc1 (configuration not stated)",
    "growth inhibition [%]": 4.38
  }
]

====

# test.name: A549 NSCLC cell proliferation inhibitors – ATP luminescence, human non-small cell lung line, primary screen (AID 371);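 also: compound exposure lasted 72 h before the ATP read; 0% = untreated cell signal and 100% = no luminescence left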
# run.conditions: at 10 µM, hits give high values
About 280 (8.5%) of roughly 3,300 compounds were called active. The full list was thinned out, with actives kept by preference.
Measured growth inhibition, listed per entry for reference.

[
  {
    "molecule": "COC(=O)CN(c1nc(C)cc(OC)n1)S(=O)(=O)c1ccccc1",
    "growth inhibition": "12.9% (inactive)"
  },
  {
    "molecule": "COC(=O)CNC(=O)c1c(C)cc(=O)oc1C",
    "growth inhibition": "0.81% (inactive)"
  },
  {
    "molecule": "CCOC(=O)C1CCN(c2nc3ccccc3nc2C(C#N)C(=O)NCCc2ccccc2)CC1 (stereo unspecified)",
    "growth inhibition": "30.8% (inactive)"
  },
  {
    "molecule": "O=C(O)c1ccc(COc2c(F)c(F)c(F)c(F)c2F)o1",
    "growth inhibition": "3.65% (inactive)"
  },
  {
    "molecule": "CN(Cc1ccccc1)c1ncnc2ccc(Br)cc12",
    "growth inhibition": "55.5% (active)"
  },
  {
    "molecule": "CC12CCC(=O)N1c1c(sc3nc(N4CCOCC4)c4c(c13)CCCC4)C(=O)N2 (stereo unspecified)",
    "growth inhibition": "4.33% (inactive)"
  },
  {
    "molecule": "O=C(Nc1ccc2c(c1)OCCO2)c1ccc(Br)o1",
    "growth inhibition": "19.2% (inactive)"
  },
  {
    "molecule": "Cc1cc(=O)oc2cc(OCCSCCN3CCOCC3)ccc12",
    "growth inhibition": "8.74% (inactive)"
  },
  {
    "molecule": "O=C(c1cccc(Cl)c1)N1CCN(C(=O)c2ccccc2F)CC1",
    "growth inhibition": "0.26% (inactive)"
  },
  {
    "molecule": "COc1ccc(-c2cc(=O)[nH]c(=O)[nH]2)cc1",
    "growth inhibition": "1.67% (inactive)"
  },
  {
    "molecule": "COCc1n[nH]c(=S)n1-c1cccc2ccccc12",
    "growth inhibition": "4.29% (inactive)"
  }
]

====

# test.name: A549 NSCLC cell proliferation inhibitors – ATP luminescence, human non-small cell lung line, primary screen (AID 371);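 also: compound exposure lasted 72 h before the ATP read; 0% = untreated cell signal and 100% = no luminescence left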
# run.conditions: at 10 µM
The campaign covered roughly 3,300 compounds. About 280 (8.5%) were called active.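 How the source made its calls: active means mean growth inhibition over the two runs of 50% or more; inactive means mean growth inhibition under 50%.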 The sample as a whole holds a higher share of actives than the screen did.
Outcome codes: active, inactive

[
  {
    "compound": "Cn1c(=O)n(Cc2ccccc2)c(=O)c2c1nc(NCC1CCCO1)n2Cc1ccccc1 (stereo not given)",
    "qualitative.label": "inactive"
  },
  {
    "compound": "O=C1CC(NCc2ccncc2)C(=O)N1c1ccc(Cl)cc1 (stereo not given)",
    "qualitative.label": "inactive"
  },
  {
    "compound": "Cn1c(NCc2ccccc2)nc2c1c(=O)n(Cc1ccc(Br)cc1)c(=O)n2C",
    "qualitative.label": "active"
  },
  {
    "compound": "Cn1c(NCc2ccccc2)nc2c1c(=O)n(Cc1ccccc1)c(=O)n2C",
    "qualitative.label": "inactive"
  },
  {
    "compound": "C[C@]12CC[C@@H]3c4ccc(OC(=O)c5ccccc5)cc4CC[C@H]3[C@@H]1CC[C@@H]2O",
    "qualitative.label": "active"
  },
  {
    "compound": "C[C@]12CC[C@@H]3c4ccc(O)cc4CC[C@H]3[C@@H]1CC[C@@H]2OC(=O)CCC(=O)O",
    "qualitative.label": "inactive"
  },
  {
    "compound": "CC(C)c1nc2sc3c(c2c(=O)o1)CCCC3",
    "qualitative.label": "inactive"
  },
  {
    "compound": "C[C@]12CC[C@@H]3c4ccc(O)cc4CC[C@H]3[C@@H]1CCC2=O",
    "qualitative.label": "inactive"
  },
  {
    "compound": "Clc1cccc(-c2nn3c(COc4ccccc4)nnc3s2)c1",
    "qualitative.label": "inactive"
  },
  {
    "compound": "Cn1c(N2CCOCC2)nc2c1c(=O)n(Cc1ccc(Cl)c(Cl)c1)c(=O)n2C",
    "qualitative.label": "inactive"
  }
]
